System: UO-31 renal
assay.protocol: NCI tumour cell line growth inhibition, 48 h

>  <compound>
Clc1ccc(C2ON=C(c3ccccc3)N2C23CC4CC(CC(C4)C2)C3)c(Cl)c1 (configuration not stated)

>  <tested.system>
UO-31 renal

>  <TGI>
> 10 µM

$$$$
>  <compound>
O=Cc1c(Cn2ccnc2)c2cc([N+](=O)[O-])ccc2n1Cc1ccccc1

>  <tested.system>
UO-31 renal

>  <TGI>
> 100 µM

$$$$
>  <compound>
[N-]=[N+]=Nc1ccc2c(c1)Sc1ccccc1N2CCCCN1CCN(Cc2ccc(C(=O)c3ccccc3)cc2)CC1

>  <tested.system>
UO-31 renal

>  <TGI>
> 27.9 µM

$$$$
>  <compound>
O=C(NC1C2CC3CC(C2)CC1C3)c1ccncn1 (configuration not stated)

>  <tested.system>
UO-31 renal

>  <TGI>
> 100 µM

$$$$
>  <compound>
O=S(=O)(O)c1ccc(N=Nc2ccc(N=Nc3c(O)c(S(=O)(=O)O)cc4cc(S(=O)(=O)O)ccc34)cc2)cc1

>  <tested.system>
UO-31 renal

>  <TGI>
> 100 µM

$$$$
>  <compound>
Nc1ccc2c(c1)Cc1ccccc1-2

>  <tested.system>
UO-31 renal

>  <TGI>
> 100 µM

$$$$
>  <compound>
O=C(O)c1sccc1O

>  <tested.system>
UO-31 renal

>  <TGI>
> 100 µM

$$$$
>  <compound>
Nc1ccn(C2OC(COP(=O)(O)OCC3OC(n4cc(F)c(=O)[nH]c4=O)CC3O)C(O)C2O)c(=O)n1 (configuration not stated)

>  <tested.system>
UO-31 renal

>  <TGI>
> 100 µM

$$$$
>  <compound>
Cn1nc(N)nc1N=S(C)(C)=N

>  <tested.system>
UO-31 renal

>  <TGI>
> 100 µM

$$$$
>  <compound>
Cc1ccc(Nc2nc(C)c(C(=O)CC(=O)C(=O)Nc3c(C)cccc3C(C)(C)C)s2)cc1

>  <tested.system>
UO-31 renal

>  <TGI>
> 100 µM

$$$$
>  <compound>
CN(C)CCCCC1CCN(CC(=O)N2c3ccccc3NC(=O)c3ccccc32)CC1

>  <tested.system>
UO-31 renal

>  <TGI>
> 100 µM

$$$$
>  <compound>
CC(=O)Oc1ccc2oc(=O)cc(C)c2c1

>  <tested.system>
UO-31 renal

>  <TGI>
> 100 µM

$$$$

---

Test system: BT-549 breast
assay.protocol: NCI tumour cell line growth inhibition, 48 h
# GI50 per entry

>  <smiles.structure>
N=C1S/C(=C/c2ccc(-c3ccc4c(c3)C(=O)NC4=O)o2)C(=O)N1c1ccc(Br)cc1

>  <GI50>
4.31 µM

$$$$
>  <smiles.structure>
O=C(CNc1c(Cl)cccc1Cl)Nc1ccc(-c2nc3ccccc3s2)cc1

>  <GI50>
1.72 µM

$$$$
>  <smiles.structure>
COc1cc2c(cc1OCCCNC(=O)/C=C1/C[C@H]3C=Nc4cc(OCc5ccccc5)c(OC)cc4C(=O)N3C1)NC(=O)[C@@H]1CCCN1C2=O

>  <GI50>
23.9 µM

$$$$
>  <smiles.structure>
O=[N+]([O-])c1ccc2scc3c4ccccc4nc-3c2c1

>  <GI50>
1.73 µM

$$$$

---

TGI reference
Test system: CCRF-CEM leukemia
assay.protocol: NCI tumour cell line growth inhibition, 48 h

>  <molecule>
CC1(C(=O)O)CCC(C(=O)O)C(C)(C)O1 (centres undefined)

>  <TGI>
> 100 µM

$$$$
>  <molecule>
O=C(NC1C2CC3CC(C2)CC1C3)c1ccncn1 (centres undefined)

>  <TGI>
> 100 µM

$$$$
>  <molecule>
Nc1nc(-c2ccccc2)cc(-c2ccccc2O)n1

>  <TGI>
> 100 µM

$$$$
>  <molecule>
CC/C=C\C/C=C\C[C@H]1C/C=C2/C(=O)C=C[C@@H]2C/C=C\CCC(=O)O1

>  <TGI>
7.05 µM

$$$$
>  <molecule>
SCCCSCCSCCCSCCS

>  <TGI>
> 100 µM

$$$$
>  <molecule>
ClC1=C(Cl)C(Cl)=C(Cl)C1=Cc1ccccc1

>  <TGI>
3.57 µM

$$$$
>  <molecule>
COC(=O)C(C/C=C(\C)c1ccccc1)C(C)=O (centres undefined)

>  <TGI>
> 100 µM

$$$$
>  <molecule>
CC(=O)OCC1OC(N2C(=S)N[C@H]([C@@H](O)[C@H](O)[C@H](O)CO)[C@H]2O)C(OC(C)=O)C(OC(C)=O)C1OC(C)=O (some centres undefined)

>  <TGI>
> 100 µM

$$$$
>  <molecule>
CCOCCOc1ccc(OCCOCC)cc1

>  <TGI>
9.84 µM

$$$$
>  <molecule>
Oc1ccc(-c2cn3ccsc3n2)cc1O

>  <TGI>
29.6 µM

$$$$
>  <molecule>
C=C(C)C(CC=C(C)C)Cc1c(O)cc(OC)c2c1OC(c1ccc(O)cc1O)C(O)C2=O (centres undefined)

>  <TGI>
> 100 µM

$$$$
>  <molecule>
COc1ccc(C(O)c2cc3c(N)c(C(=O)Nc4cccc(OC)c4)sc3nc2C)cc1 (centres undefined)

>  <TGI>
4.64 µM

$$$$
>  <molecule>
Cc1cc(-c2c(Br)cc(C(=O)O)n2C)on1

>  <TGI>
> 100 µM

$$$$
>  <molecule>
CO/C(N)=C(\C#N)N=Cc1cccnc1

>  <TGI>
> 100 µM

$$$$
>  <molecule>
O=C(NC1CCC(Br)CC1)C1CCCC(S(=O)(=O)NC2CCCCC2)C1 (centres undefined)

>  <TGI>
26.3 µM

$$$$
>  <molecule>
COc1cccc2c1C(=O)c1c(O)c3c(c(O)c1C2=O)CC(O)(C(=O)CO)CC3OC1CC(N)C(I)C(C)O1 (centres undefined)

>  <TGI>
> 100 µM

$$$$
>  <molecule>
COc1ccc2c3c1O[C@H]1C(=O)C=CC4(n5[nH]c(=O)n(-c6ccccc6)c5=O)C(C2)N(C)CCC314 (some centres undefined)

>  <TGI>
> 100 µM

$$$$
>  <molecule>
COc1ccc(CN2C(=O)C(Cl)=C(Nc3cccc(O)c3)C2=O)cc1

>  <TGI>
20.9 µM

$$$$
>  <molecule>
CCC[C@H](N[C@H]1CCc2cc(F)cc(F)c2C1)C(=O)Nc1cn(C(C)(C)CNCC(C)(C)C)cn1

>  <TGI>
> 100 µM

$$$$
>  <molecule>
COC(=O)C(CCC1CC(OC)N(C(=O)OCc2ccccc2)C1)N=Cc1ccccc1 (centres undefined)

>  <TGI>
> 100 µM

$$$$
>  <molecule>
COc1cc(C(C)c2ccc3c(ccn3C)c2)cc(OC)c1OC (centres undefined)

>  <TGI>
> 100 µM

$$$$
>  <molecule>
Cn1cc(C2=C(c3c4n(c5ccccc35)CCN(C(N)=S)C4)C(=O)NC2=O)c2ccccc21

>  <TGI>
> 25 µM

$$$$
>  <molecule>
CC(C)(C)c1ccc2c(c1)C(=O)c1ccccc1C2=O

>  <TGI>
> 100 µM

$$$$
>  <molecule>
CCOc1ccc(NC(=O)/C(=N\N)C(C(=O)OC)c2nc3ccc(Cl)cc3[nH]c2=O)cc1 (centres undefined)

>  <TGI>
> 100 µM

$$$$
>  <molecule>
COc1cc(-c2nn(-c3ccc(NC(=O)NCCCNC(=O)c4ccccc4)cc3)cc2-c2ccncc2)ccc1Cl

>  <TGI>
> 100 µM

$$$$
>  <molecule>
CN1C(=O)N(C)C(N2CCCC2)c2c1nc1ccccn1c2=O (centres undefined)

>  <TGI>
> 100 µM

$$$$
>  <molecule>
CC1=Nn2c(nnc2-c2ccc(Cl)cc2)NC(C)(C)C1

>  <TGI>
> 100 µM

$$$$
>  <molecule>
COc1cc(NC(=O)c2ccc(C(F)(F)F)nc2Nc2cc(Cl)ccc2C)cc(OC)c1OC

>  <TGI>
22 µM

$$$$
>  <molecule>
O=C(/C=C/c1cccc([N+](=O)[O-])c1)c1cccnc1

>  <TGI>
59.2 µM

$$$$
>  <molecule>
Cc1nc2ccccc2c(/C=C/c2ccc(Cl)cc2)c1C(=O)/C=C/c1ccc(F)cc1

>  <TGI>
> 100 µM

$$$$
>  <molecule>
COC(=O)c1ccc(NC(=O)c2cc3c(cc2Br)OCO3)o1

>  <TGI>
> 100 µM

$$$$
>  <molecule>
CCCCn1c(C)c(C(=O)CC)c(C(=O)NCCN2CCN(c3ccccc3Cl)CC2)c1C

>  <TGI>
> 100 µM

$$$$
>  <molecule>
COc1ccc2[nH]c(C(O)(Cc3cccnc3)Cc3cccnc3)cc2c1

>  <TGI>
> 100 µM

$$$$
>  <molecule>
COC(=O)C(=O)C(C(=O)OC)C(=O)C(=O)Nc1ccccc1C(N)=O (centres undefined)

>  <TGI>
> 100 µM

$$$$
